test system: Liver microsomes; test: Intrinsic clearance in human liver microsomes; format: ADME, Microsome
Would you kindly list log10(CL) for each of these compounds?
Note the log scale: values are log10 of CL expressed in L/min.

Requested field: log10(CL). Item: CN(Cc1ccc(F)cc1)C(=O)[C@@]1(c2ccc(Cl)c(Cl)c2)C[C@H]1CN1CC(N2CCN(S(=O)(=O)N(C)C)CC2)C1
1.08

Requested field: log10(CL). Item: CN(Cc1ccc(F)cc1)C(=O)[C@@]1(c2ccc(Cl)c(Cl)c2)C[C@H]1CN1CCN(C(=O)CN2CCOCC2)CC1
1.20

Requested field: log10(CL). Item: CN(Cc1ccc(F)cc1)C(=O)[C@@]1(c2ccc(Cl)c(Cl)c2)C[C@H]1CN1CCN(CCN2CCOCC2)CC1
0.63

Requested field: log10(CL). Item: CNC(=O)NC1(c2ccccc2)CCN(C[C@@H]2C[C@@]2(C(=O)N(C)Cc2ccccc2)c2ccc(Cl)c(Cl)c2)CC1
0.83

Requested field: log10(CL). Item: CN(Cc1ccc(F)cc1)C(=O)[C@@]1(c2ccc(Cl)c(Cl)c2)C[C@H]1CN1CCN(C(=O)CN2CCCC2)CC1
0.75

Requested field: log10(CL). Item: CN(Cc1ccccc1)C(=O)[C@@]1(c2ccc(Cl)c(Cl)c2)C[C@H]1CN1CCC(c2ccccc2)(N(C)C(=O)C(N)=O)CC1
0.84

Requested field: log10(CL). Item: CC(C)NC[C@@H]1C[C@@]1(C(=O)N(C)Cc1ccc(F)cc1)c1ccc(Cl)c(Cl)c1
-0.05

Requested field: log10(CL). Item: CC(=O)NC1(c2ccccc2)CCN(C[C@@H]2C[C@@]2(C(=O)N(C)Cc2ccccc2)c2ccc(Cl)c(Cl)c2)CC1
0.54

Requested field: log10(CL). Item: COC(=O)NC1(c2ccccc2)CCN(C[C@@H]2C[C@@]2(C(=O)N(C)Cc2ccccc2)c2ccc(Cl)c(Cl)c2)CC1
0.80

Requested field: log10(CL). Item: CN(Cc1ccccc1)C(=O)[C@@]1(c2ccc(Cl)c(Cl)c2)C[C@H]1CN1CCC(NC(N)=O)(c2ccccc2)CC1
0.30

Requested field: log10(CL). Item: CN(C)C(=O)CCN1CCN(C[C@@H]2C[C@@]2(C(=O)N(C)Cc2ccc(F)cc2)c2ccc(Cl)c(Cl)c2)CC1
0.93

Requested field: log10(CL). Item: CCCNC[C@@H]1C[C@@]1(C(=O)N(C)Cc1ccc(F)cc1)c1ccc(Cl)c(Cl)c1
-0.05

Requested field: log10(CL). Item: CC(=O)N(C)C1(c2ccccc2)CCN(C[C@@H]2C[C@@]2(C(=O)N(C)Cc2ccccc2)c2ccc(Cl)c(Cl)c2)CC1
1.28

Requested field: log10(CL). Item: CN(Cc1ccc(F)cc1)C(=O)[C@@]1(c2ccc(Cl)c(Cl)c2)C[C@H]1CN1CCN(CC(=O)N2CCCC2)CC1
1.08

Requested field: log10(CL). Item: CN(Cc1ccc(F)cc1)C(=O)[C@@]1(c2ccc(Cl)c(Cl)c2)C[C@H]1CN1CCN(C(=O)CN2CCCCCC2)CC1
1.18

Requested field: log10(CL). Item: CN(Cc1ccc(F)cc1)C(=O)[C@@]1(c2ccc(Cl)c(Cl)c2)C[C@H]1CN1CCN(C(=O)CN2CCCCC2)CC1
1.00

Requested field: log10(CL). Item: CN(Cc1ccccc1)C(=O)[C@@]1(c2ccc(Cl)c(Cl)c2)C[C@H]1CN1CCC(NS(C)(=O)=O)(c2ccccc2)CC1
1.18

From: ChEMBL document CHEMBL1681655
